FYI, the data here is from ChEMBL document CHEMBL2046442.

- Test system: Salmonella typhimurium
- ASSAY PROCEDURE: Induction of mutagenesis in Salmonella typhimurium TA100 at 160 ug/plate by Ames test in presence of rat liver S9 fraction relative to control
- Format: toxicity, organism-based
- TEST CONTEXT: salmonella enterica subsp. enterica serovar typhimurium
Please provide measured fold change (FC) for the entries that follow.
Format: numeric value only, no unit, no commentary.

// field: fold change (FC); key: "Nc1ccc(-c2ccccc2F)cc1" ; value = 10

Reported fold change (FC) of "Nc1ccc(-c2ccccc2Cl)cc1" : 5

For record "Nc1ccc(-c2ccccc2)c(F)c1" the listed fold change (FC) is 3

"Nc1ccc(-c2c(F)cccc2F)cc1" has a reported fold change (FC) of 3

Briefly, fold change (FC) measured for "Nc1ccc(-c2ccc(F)cc2)cc1" : 21

Sure, the documented fold change (FC) for "Nc1ccc(-c2cccc(F)c2)cc1" is 13
